- EXPERIMENT NOTES: chemical genetic growth profiling, strain panel (AID 1159580);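 also: tested at 20 µM; growth read once vehicle control cultures reached saturation at 30 °C; 1 = growth at the plate median or of vehicle wells; lower values mean less growth of the strain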
- COND: S. cerevisiae deletion strains, growth OD, locus YDL040C, strain nat1
Among all 5,500 compounds or so, about 2,000 (36%) were called active. Roughly 18% stayed inconclusive and do not appear here. Rule as the data show it: active = normalized growth mostly below about 0.91 (no sharp cut-off); inconclusive = no clear call, values can overlap the other calls; inactive = mostly above about 0.92. Some of the results follow.
Possible outcomes: 1 (yes) = active, 0 (no) = inactive

> print(dat)
                                    molecule  qualitative.label
 1  COc1cc(O)c(C(=O)/C=C/c2ccc(OC)c(O)c2)c(OC)c1             0 (no)
 2              CN[C@@H](C)[C@@H](O)c1ccccc1             0 (no)
 3     COc1cc(NS(=O)(=O)c2ccc(N)cc2)nc(OC)n1             0 (no)
 4              Oc1cc(Cl)ccc1Oc1ccc(Cl)cc1Cl            1 (yes)
 5       CN(C)CC/C=C1\c2ccccc2Sc2ccc(Cl)cc21             0 (no)
 6  c1cncc(C2CCCCN2)c1 (configuration not stated)             0 (no)
 7  CCCCNc1cc(C(=O)O)cc(S(N)(=O)=O)c1Oc1ccccc1             0 (no)
 8  CC(N)CCCC(C)(C)O (configuration not stated)             0 (no)
 9  COCCc1ccc(OCC(O)CNC(C)C)cc1 (configuration not stated)             0 (no)
10        COc1ccc2c(c1)OCc1c-2oc2cc(OC)ccc12             0 (no)
11     COc1cc(O)c(C(=O)/C=C/c2ccccc2)c(OC)c1             0 (no)
12  CN1CCCN=C1COC(=O)C(O)(c1ccccc1)C1CCCCC1 (configuration not stated)             0 (no)

----------
Measured normalized growth, listed per entry.
- EXPERIMENT NOTES: chemical genetic growth profiling, strain panel (AID 1159580)
- COND: S. cerevisiae deletion strains, growth OD, locus YDR335W, strain msn5, hits give low values
Screen size: about 5,500 compounds; about 2,000 (36%) were called active. Roughly 18% stayed inconclusive and do not appear here. The list shows a part of the results.
MEASURED PROPERTY: normalized growth

> print(dat)
                                   compound  measured.property  value.reported
1              COc1ccc2cc([C@H](C)CO)ccc2c1  normalized growth            1.02
2  COc1ccc(OC)c(C(O)C(C)N)c1 (stereo unspecified)  normalized growth           0.997
3  CC(C(=O)O)c1ccc(-c2ccccc2)c(F)c1 (stereo unspecified)  normalized growth            1.01
4                     COP(=O)(OC)OC=C(Cl)Cl  normalized growth           0.995
5  CN1CCCN=C1COC(=O)C(O)(c1ccccc1)C1CCCCC1 (stereo unspecified)  normalized growth           0.997
6  COCCc1ccc(OCC(O)CNC(C)C)cc1 (stereo unspecified)  normalized growth           0.984

----------
Measured normalized growth, listed per entry.
- EXPERIMENT NOTES: chemical genetic growth profiling, strain panel (AID 1159580)
- COND: S. cerevisiae deletion strains, growth OD, locus YLL001W, strain dnm1, hits give low values
Screen size: about 5,500 compounds; about 2,000 (36%) were called active. Inconclusive results (about 18%) are left out. Some of the results follow.
MEASURED PROPERTY: normalized growth

COMPOUND	VALUE REPORTED
CCCCCCCCCCCCCCCC[N+](C)(C)C	0.0599 (active)
CC(C)(O)[C@@H]1[C@H]2OC(=O)[C@@H]1[C@]1(O)C[C@H]3O[C@]34C(=O)O[C@H]2[C@]14C	0.996 (inactive)
CCCCCCNC(=O)n1cc(F)c(=O)[nH]c1=O	0.773 (active)
COc1cc(O)c(C(=O)/C=C/c2ccc(O)c(OC)c2)c(OC)c1	0.984 (inactive)
CC(=O)N[C@@H](CC(C)C)C(=O)O	0.944 (inactive)
CCOC(=O)CCC(=O)O[C@H]1[C@H](O[C@@H]2[C@@H](C)[C@H](O[C@H]3C[C@@](C)(OC)[C@@H](O)[C@H](C)O3)[C@@H](C)C(=O)O[C@H](CC)[C@@](C)(O)[C@H](O)[C@@H](C)C(=O)[C@H](C)C[C@@]2(C)O)O[C@H](C)C[C@@H]1N(C)C	1 (inactive)
CC1=C(CC(=O)O)c2cc(F)ccc2/C1=C\c1ccc(S(C)=O)cc1 (stereo not given)	0.998 (inactive)
CCN(CC)CCNC(=O)c1cc(Br)c(N)cc1OC	1 (inactive)
COc1ccc2c3c1O[C@H]1C[C@@H](O)C=C[C@@]31CCN(C)C2	0.996 (inactive)
COCCc1ccc(OCC(O)CNC(C)C)cc1 (stereo not given)	0.935 (inactive)
CC(=O)O[C@H]1[C@@H]2[C@@H](OC(=O)Cc3ccccc3)[C@@H](C)C[C@]2(OC(C)=O)C(=O)/C(C)=C/[C@H]2[C@H](CC[C@@]13CO3)C2(C)C	0.98 (inactive)
CC1(C)OC(=O)NC1=O	1.02 (inactive)
CC(C(=O)O)c1ccc(-c2ccccc2)c(F)c1 (stereo not given)	1.02 (inactive)
COc1cc(/C=C/C(=O)/C=C(O)/C=C/c2ccc(O)c(OC)c2)ccc1O	0.212 (active)
O=C(O)c1cc2ccccc2[nH]1	0.974 (inactive)

----------
- EXPERIMENT NOTES: chemical genetic growth profiling, strain panel (AID 1159580);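 also: tested at 20 µM; growth read once vehicle control cultures reached saturation at 30 °C; 1 = growth at the plate median or of vehicle wells; lower values mean less growth of the strain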
- COND: S. cerevisiae deletion strains, growth OD, locus YDR052C, strain DBF4, hits give low values
About 2,000 (36%) of roughly 5,500 compounds were called active. Another 18% or so got no clear call; they are omitted. The list shows a part of the results.
MEASURED PROPERTY: normalized growth

> print(dat)
                                   molecule  measured.property    value.reported
1  O=C1C(=O)N(CN2CCc3c([nH]c4ccccc34)C2C(F)(F)F)c2ccc(F)cc21 (centres undefined)  normalized growth  0.991 (inactive)
2  O=c1c(Sc2ccc(Cl)cc2)c(Sc2ccc(Cl)cc2)c1=O  normalized growth  0.977 (inactive)
3  N#Cc1ccc(S(=O)(=O)Nc2ccccc2Oc2ccc(Cl)cc2Cl)cc1  normalized growth  0.979 (inactive)
4             Cc1ccc2nc(-c3ccc(Cl)cc3)cn2c1  normalized growth  0.972 (inactive)

----------
Measured normalized growth, listed per entry.
- EXPERIMENT NOTES: chemical genetic growth profiling, strain panel (AID 1159580);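 also: tested at 20 µM; growth read once vehicle control cultures reached saturation at 30 °C; 1 = growth at the plate median or of vehicle wells; lower values mean less growth of the strain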
- COND: S. cerevisiae deletion strains, growth OD, locus YLR262C, strain YPT6, hits give low values
In all, about 5,500 compounds went through this assay and about 2,000 (36%) were called active. Another 18% or so got no clear call; they are omitted. The list shows a part of the results.
MEASURED PROPERTY: normalized growth

> print(dat)
                                   compound  value.reported
1                      C[N+](C)(C)CCOC(N)=O           0.991
2  CC1=C(/C=C/C(C)=C/C=C/C(C)=C/C=C/C=C(C)/C=C/C=C(C)/C=C/C23OC2(C)CC(O)CC3(C)C)C(C)(C)CC(O)C1 (centres undefined)           0.973
3                     c1ccc(N=Nc2ccccc2)cc1           0.887
4  CC1=C(/C=C/C(C)=C/C=C/C(C)=C/C=C/C=C(C)/C=C/C=C(C)/C=C/C2=C(C)C(=O)C(O)CC2(C)C)C(C)(C)CC(O)C1=O (centres undefined)            1.01

----------
- EXPERIMENT NOTES: chemical genetic growth profiling, strain panel (AID 1159580);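 also: tested at 20 µM; growth read once vehicle control cultures reached saturation at 30 °C; 1 = growth at the plate median or of vehicle wells; lower values mean less growth of the strain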
- COND: S. cerevisiae deletion strains, growth OD, locus YKR001C, strain vps1, hits give low values
About 2,000 (36%) of roughly 5,500 compounds were called active. About 18% were inconclusive and are not listed. The list shows a part of the results.

COMPOUND	normalized growth
C[C@@H]1[C@H]2[C@H](O[C@@H]3O[C@H](CO)[C@@H](O)[C@H](O)[C@H]3O)OC=C(C(=O)O)[C@H]2C[C@@H]1O	0.983
CC(N)CCCC(C)(C)O (stereo unspecified)	0.99
CN1CCCN=C1COC(=O)C(O)(c1ccccc1)C1CCCCC1 (stereo unspecified)	0.975
CC(=O)C1CCC2C3CC(=O)C4=CC(=O)CCC4(C)C3CCC12C (stereo unspecified)	0.971
C[N+](C)(C)CCCCCC[N+](C)(C)C	1
CCC(C)C(=O)O[C@H]1[C@H](O)C2C(CN3CC(C)CCC3[C@@]2(C)O)C2C[C@]34O[C@]5(O)C(OC(=O)C(C)(O)C(C)O)CC[C@@]3(C)C5C(OC(C)=O)[C@@H](OC(C)=O)C4[C@@]21O (stereo partly specified)	0.98

These entries and their values trace back to PubChem BioAssay AID1159580.
